Every entry's value here was drawn from the RNAGym collection of RNA variant scans (doi:10.7554/elife.80360).

Listed variants paired with reported self-cleavage
B1: HDV Ribozyme (parent)
chain: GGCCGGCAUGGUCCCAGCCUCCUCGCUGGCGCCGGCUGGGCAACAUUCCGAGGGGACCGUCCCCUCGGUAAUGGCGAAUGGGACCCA

variants of: B1; assay: self-cleavage, relative activity (ratio to wild type); higher = more cleavage; co-transcriptional
API doc: respond with a numeric literal and nothing else, no unit.

Some variants with recorded self-cleavage:
- Mutation Id: "A51G U60A"
  self-cleavage: 0.852
- Mutation Id: "C57U U65C"
  self-cleavage: 0.895

Input line: Give reported self-cleavage value for G10C G34C
Output line: 0.289

Input line: Give reported self-cleavage value for G53A A71U
Output line: 0.904

Input line: Give reported self-cleavage value for G28C C62U
Output line: 0.0369

Input line: Give reported self-cleavage value for C32U C33G
Output line: 0.117

Input line: Give reported self-cleavage value for G74C C75A
Output line: 0.252

Input line: Give reported self-cleavage value for U46G G55C
Output line: 0.98

Input line: Give reported self-cleavage value for A16G C84G
Output line: 0.623

Input line: Give reported self-cleavage value for C4U A51C
Output line: 0.723

Input line: Give reported self-cleavage value for C15G C85A
Output line: 0.748

Input line: Give reported self-cleavage value for G76A G82U
Output line: 0.601
